Biological target: full-length beta-Catenin (Uniprot ID P35222) (Homo sapiens (Human)) (UniProt P35222)
Sequence (P35222 2-781 limits assumed): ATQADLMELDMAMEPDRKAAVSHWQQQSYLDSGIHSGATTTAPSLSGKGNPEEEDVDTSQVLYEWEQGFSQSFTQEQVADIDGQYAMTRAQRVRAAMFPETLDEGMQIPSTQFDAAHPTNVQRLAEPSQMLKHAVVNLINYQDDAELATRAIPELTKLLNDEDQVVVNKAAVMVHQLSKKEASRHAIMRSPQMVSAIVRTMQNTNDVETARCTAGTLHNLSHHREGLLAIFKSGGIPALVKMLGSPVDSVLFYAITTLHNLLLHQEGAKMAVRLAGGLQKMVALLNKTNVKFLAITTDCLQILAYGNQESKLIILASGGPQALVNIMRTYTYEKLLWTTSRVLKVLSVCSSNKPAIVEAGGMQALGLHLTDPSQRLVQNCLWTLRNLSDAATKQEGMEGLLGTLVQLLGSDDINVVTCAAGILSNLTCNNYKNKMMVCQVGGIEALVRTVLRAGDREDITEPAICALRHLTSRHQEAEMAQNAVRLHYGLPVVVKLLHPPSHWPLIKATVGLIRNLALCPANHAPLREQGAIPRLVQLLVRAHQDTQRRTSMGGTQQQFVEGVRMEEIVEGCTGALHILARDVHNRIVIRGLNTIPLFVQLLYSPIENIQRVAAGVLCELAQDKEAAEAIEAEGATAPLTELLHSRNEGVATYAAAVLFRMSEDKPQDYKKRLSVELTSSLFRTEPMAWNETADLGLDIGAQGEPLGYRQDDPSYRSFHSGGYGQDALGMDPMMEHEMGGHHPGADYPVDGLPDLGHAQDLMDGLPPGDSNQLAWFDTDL
Assay: fluorescence polarization competition: peptide titrated against 10 nM full-length beta-catenin + 10 nM 5FAM-TCF4(10-53) probe
Starred links: 1 amine or outer side, 2 acyl side, 3 side chain; linkers in the order of their positions; H or OH if unused. Positions of bridges follow the written chain, without caps; N, C: chain ends. Non-standard residues stand in square brackets, D forms with d. Primed or numbered codes have the meaning given here. PyrS2″ = (S)-3-amino-1-((pent-4-en-1-yloxy)carbonyl)pyrrolidine-3-carboxylic acid (stapling residue), C=CCCCOC(=O)N1CC[C@@](N[*:1])(C(=O)[*:2])C1; B5(4) = 2,2-bis(4-pentenyl)glycine = 2-amino-2-(pent-4-en-1-yl)hept-6-enoic acid (stitching residue), C=CCCCC(CCCC=C)(N[*:1])C(=O)[*:2]; B5(5) = 2,2-bis(4-pentenyl)glycine, 2-amino-2-(pent-4-en-1-yl)hept-6-enoic acid (stitching residue), C=CCCCC(CCCC=C)(N[*:1])C(=O)[*:2]; PyrS2 = (S)-3-amino-1-((pent-4-en-1-yloxy)carbonyl)pyrrolidine-3-carboxylic acid, C=CCCCOC(=O)N1CC[C@@](N[*:1])(C(=O)[*:2])C1; B5(3) = 2,2-bis(4-pentenyl)glycine (stitching residue), C=CCCCC(CCCC=C)(N[*:1])C(=O)[*:2]; B5 = 2-amino-2-(pent-4-en-1-yl)hept-6-enoic acid, C=CCCCC(CCCC=C)(N[*:1])C(=O)[*:2]; Trp(5-Cl) = N[C@@H](Cc1c[nH]c2ccc(Cl)cc12)C(=O)O; Trp(1-Me) = Cn1cc(C[C@H](N)C(=O)O)c2ccccc21; Phe(2-Cl) = N[C@@H](Cc1ccccc1Cl)C(=O)O; 2Nal = N[C@@H](Cc1ccc2ccccc2c1)C(=O)O; Bta = N[C@@H](Cc1csc2ccccc12)C(=O)O; αAllylPro = C=CC[C@@]1(C(=O)O)CCCN1; tBuAla = CC(C)(C)C[C@H](N)C(=O)O; 3Thi = N[C@@H](Cc1ccsc1)C(=O)O; hSer = N[C@@H](CCO)C(=O)O
Label YES when EC50 is strictly below 20 nM; at or above that, label NO.

# example entries with known answers
binder | cat
Ac-[αAllylPro]F[tBuAla][B5]DDAADN[PyrS2][3Thi][Bta]Q-NH2 (staple 1-4, 4-11) [I-797] | NO
Ac-[αAllylPro]D[tBuAla][B5(4)]DDAAFN[PyrS2][3Thi][Trp(5-Cl)]H-NH2 (staple 1-4, 4-11) [I-791] | NO
Ac-[αAllylPro]D[tBuAla][B5(5)]DDAAFN[PyrS2][3Thi][2Nal]H-NH2 (staple 1-4, 4-11) [I-790] | NO
Ac-[αAllylPro]D[tBuAla][B5]DDAAFN[PyrS2][2Nal][Bta]H-NH2 (staple 1-4, 4-11) [I-795] | NO

# input # TODO verify EC50 < 20 nM strictly for this binder: Ac-[αAllylPro]D[tBuAla][B5(4)]DDAAF[hSer][PyrS2″][3Thi][Bta]H-NH2 (staple 1-4, 4-11) [I-804]
# output YES

# input What about this binder? Ac-[αAllylPro]D[tBuAla][B5(5)]DDAAFN[PyrS2][Phe(2-Cl)][Bta]H-NH2 (staple 1-4, 4-11) [I-784]
# output YES

# input What about this binder? Ac-[αAllylPro]F[tBuAla][B5]DDAADN[PyrS2][3Thi][Bta]H-NH2 (staple 1-4, 4-11) [I-796]
# output NO

# input What about this binder? Ac-[αAllylPro]D[tBuAla][B5]DDAAFN[PyrS2][3Thi][Trp(1-Me)]H-NH2 (staple 1-4, 4-11) [I-799]
# output NO

# input What about this binder? Ac-[αAllylPro]D[tBuAla][B5(5)]DEAAFN[PyrS2][3Thi][Bta]-NH2 (staple 1-4, 4-11) [I-786]
# output YES

# input What about this binder? Ac-[αAllylPro]D[tBuAla][B5(3)]DDAAFF[PyrS2″][3Thi][Bta]Q-NH2 (staple 1-4, 4-11) [I-807]
# output YES
